test: H69AR cell proliferation blockers – human, duplicate replicates, primary screen (AID 580); conditions: H69AR lung tumor cells viability, ATP luminescence, 72 h; at 10 µM
Active and inactive are the calls of the source.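 The calls were made as follows: active = viability at or under a set limit in both replicates, limit being median viability minus 3 SD (cut at about 48% in these data, passing the limit was not always enough); inconclusive = at or under the limit in just one replicate; inactive = at or above the limit in both replicates.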
Parameter call: string, one of active, inactive

Reference set (2 entries):
Compound	Assigned class
O=C(c1cnccn1)N(c1ccccc1)C1(C(=O)NC2CCCC2)CCCCC1	inactive
COC(=O)C1(C#N)C(c2ccccc2)C1(C(=O)OC)C(=O)OC (stereo unspecified)	inactive

Fill in: this test's call for Cc1c(C)c2ccc(OC3CCCCC3=O)cc2oc1=O (stereo unspecified) is ___
inactive

// repeat for Cn1c(CSc2nc3ccccc3s2)nnc1SCC(=O)NCCN1CCOCC1 and report
inactive

// repeat for COc1cc(NC(=O)C2CCCN2S(=O)(=O)c2cccc3cccnc23)cc(OC)c1OC (stereo unspecified) and report
inactive

// repeat for COc1cc2[nH]c(=O)n(CCCCCC(=O)NCCCN3CCCC3=O)c(=O)c2cc1OC and report
inactive

// repeat for CCC(C)NC(=O)CS(=O)(=O)Cc1nc(-c2cccc(OC)c2)oc1C (stereo unspecified) and report
inactive
